System: ECHCG
Experiment: Post-emergence biological efficacy
Format: in vivo
Details: Echinochloa crus-galli, 312 h, evaluated after 13 days, read-out: damage to plant (100=total damage to plant; 0=no damage to plant)
Exercise: state measured pest or weed control at 250 g/ha for each of the compounds provided.

Below, each entry is followed by its recorded pest or weed control at 250 g/ha result.
INSERT INTO assay_data (compound, quantity_kind, result) VALUES
  ('CC1(C(=O)O)CC(c2cc(-c3ncc(C(F)(F)F)cc3Cl)c(F)cc2Cl)=NO1 (centres unmarked)', 'pest or weed control at 250 g/ha', '100%'),
  ('CCOC(=O)C1(C)CC(c2cc(-c3cccnc3F)c(F)cc2Cl)=NO1 (centres unmarked)', 'pest or weed control at 250 g/ha', '20%'),
  ('CCOC(=O)C1(C)CC(c2cc(-c3cc(C(F)(F)F)cc(Cl)n3)c(F)cc2Cl)=NO1 (centres unmarked)', 'pest or weed control at 250 g/ha', '0%'),
  ('CCOC(=O)C1(C)CC(c2cc(-c3ccc(C(F)(F)F)cn3)c(F)cc2Cl)=NO1 (centres unmarked)', 'pest or weed control at 250 g/ha', '100%'),
  ('CCOC(=O)C1(C)CC(c2cc(-c3ncc(Br)cc3Cl)c(F)cc2Cl)=NO1 (centres unmarked)', 'pest or weed control at 250 g/ha', '100%');

Would you be so kind as to report pest or weed control at 250 g/ha for each listed record?
1. CCOC(=O)C1(C)CC(c2cc(-c3cc(Cl)cnc3F)c(F)cc2Cl)=NO1 (centres unmarked)
2. CCOC(=O)C1(C)CC(c2cc(-c3nccnc3C)c(F)cc2Cl)=NO1 (centres unmarked)
3. CCOC(=O)C1(C)CC(c2cc(-c3ncc(C(C)(F)F)cc3Cl)c(F)cc2Cl)=NO1 (centres unmarked)
4. CCOC(=O)C1(C)CC(c2cc(-c3cc(Cl)ncc3OC)c(F)cc2Cl)=NO1 (centres unmarked)

Output:
1. 70%
2. 20%
3. 100%
4. 30%

Your task in this section: give pest or weed control at 250 g/ha for each listed record.
1. CCOC(=O)C1(C)CC(c2cc(-c3ccc(OC)nn3)c(F)cc2Cl)=NO1 (centres unmarked)
2. CCOC(=O)C1(C)CC(c2cc(-c3ncc(C(F)(F)F)cc3Br)c(F)cc2Cl)=NO1 (centres unmarked)
3. CCOC(=O)C1(C)CC(c2cc(-c3ccc(Cl)nn3)c(F)cc2Cl)=NO1 (centres unmarked)
4. CCOC(=O)C1(C)CC(c2cc(-c3ncc(Cl)cc3Cl)c(F)cc2Cl)=NO1 (centres unmarked)
5. CCOC(=O)C1(C)CC(c2cc(-c3ncc(C(C)=O)cc3Cl)c(F)cc2Cl)=NO1 (centres unmarked)
6. CCOC(=O)C1(C)CC(c2cc(-c3cccnc3)c(F)cc2Cl)=NO1 (centres unmarked)
7. CCOC(=O)C1(C)CC(c2cc(-c3ccccn3)c(F)cc2Cl)=NO1 (centres unmarked)

Output:
80%
30%
50%
100%
40%
0%
0%

Input: Using the record for CCOC(=O)C1(C)CC(c2cc(-c3cc(C(F)(F)F)ccn3)c(F)cc2Cl)=NO1 (centres unmarked) , state its measured pest or weed control at 250 g/ha.
Output: 60%

---

Test system: IPOHE
Assay: Post-emergence biological efficacy
Type: in vivo
Conditions: Ipomoea hederacea, 312 h, evaluated after 13 days, read-out: damage to plant (100=total damage to plant; 0=no damage to plant)
quantity kind: pest or weed control at 250 g/ha (%)
Numbers only, in %.

Example entries and their recorded answers appear below.
INSERT INTO measurements (molecule, quantity_kind, result_number) VALUES
  ('CCOC(=O)C1(C)CC(c2cc(-c3cccnc3)c(F)cc2Cl)=NO1 (stereo not shown)', 'pest or weed control at 250 g/ha', 0),
  ('CCOC(=O)C1(C)CC(c2cc(-c3cccnc3F)c(F)cc2Cl)=NO1 (stereo not shown)', 'pest or weed control at 250 g/ha', 50),
  ('CCOC(=O)C1(C)CC(c2cc(-c3cc(C(F)(F)F)cnc3F)c(F)cc2Cl)=NO1 (stereo not shown)', 'pest or weed control at 250 g/ha', 100);

Input: Report pest or weed control at 250 g/ha under test system IPOHE for CCOC(=O)C1(C)CC(c2cc(-c3cnc(F)c(OC)c3)c(F)cc2Cl)=NO1 (stereo not shown) .
Output: 90
